- PROCEDURE_TEXT: folding stability dG unfold from chymotrypsin proteolysis; higher = more stable
Threshold rule: folding stability dG unfold greater than or equal to 3 kcal/mol is MET; below that, NOT MET.

KKYKVPVKEALKVAKKLIEKGYEKVKITAYLPNGEKYEIEDIKEFEEELKKKFPGIKPENLTVEIEVIPKES [r1_325_TrMRF] : MET
SAGGSAGGSAGGKKYKIKVYVKDKKTKKWKKIKEIEVDTKEEALEAIKKLPPNYEVKIVPSAGGSAGGSAGG [r7_307_TrROS_Hall] : MET
SAGKMLVVRIEVEVEVEVTVEKDGKKETFKEKKKLTLTLVFESEEEAEAAKKELEKLFPDLKIEVVPLPSAG [r5_453_TrROS_Hall] : MET
SAGGSAGGSASMSYITKVEYKESPEGKLITTTTTTDPTSPNDVKTTTTVTPLPPLNPSPELKSAGGSAGGSA [r18_409_JUSTAS] : NOT MET
SAGGSAGGSSMTITVTDLVTGEPGEIPEELKAELAAEAEESGSAVTFEITTPDGKKYRAEITPSAGGSAGGS [r12_41_JUSTAS] : NOT MET

# check: folding stability dG unfold of SAGGSAGGSMVYKVTVYIPESGETREFVDPGSEEEIKARVKELFPDPNVKVEITPIEASPELLSAGGSAGGS [r12_92_JUSTAS] is greater than or equal to 3 kcal/mol NOT MET
